Molecular target: Luciferin 4-monooxygenase (Photinus pyralis, UniProt P08659)
Sequence (P08659 whole entry): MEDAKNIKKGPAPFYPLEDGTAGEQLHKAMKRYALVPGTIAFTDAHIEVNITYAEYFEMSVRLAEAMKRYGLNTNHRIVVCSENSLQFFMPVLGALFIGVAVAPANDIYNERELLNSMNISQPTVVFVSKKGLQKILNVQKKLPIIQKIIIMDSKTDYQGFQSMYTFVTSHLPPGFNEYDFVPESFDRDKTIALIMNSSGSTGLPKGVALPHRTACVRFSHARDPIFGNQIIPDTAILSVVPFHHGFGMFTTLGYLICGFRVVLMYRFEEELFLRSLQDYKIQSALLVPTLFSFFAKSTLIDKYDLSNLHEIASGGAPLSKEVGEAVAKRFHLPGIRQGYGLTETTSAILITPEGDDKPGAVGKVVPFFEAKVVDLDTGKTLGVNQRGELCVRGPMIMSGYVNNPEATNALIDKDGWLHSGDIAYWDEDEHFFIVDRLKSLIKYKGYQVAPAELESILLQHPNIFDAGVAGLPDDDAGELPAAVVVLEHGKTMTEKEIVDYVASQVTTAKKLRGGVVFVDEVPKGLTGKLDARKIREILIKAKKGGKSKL
Assay: inhibition of purified Photinus pyralis luciferase – biochemical, luminescence, dose response (AID 1891)
Activity calls are given as the source filed them.
Documented EC50 across a set of molecules
MEASURE: EC50

MOL: CCOc1cccc2cc(C(=O)NCc3cccnc3)c(=O)oc12
MEASURE: EC50
RESULT: > 112 µM (not active)

MOL: CCOC(=O)Cc1sc(N)nc1C
MEASURE: EC50
RESULT: > 112 µM (not active)

MOL: CCOc1ccc(S(=O)(=O)NCCC(=O)N2CCCN(C)CC2)cc1
MEASURE: EC50
RESULT: > 112 µM (not active)

MOL: CCOC(=O)N1CCN(C(=O)CCCN2C(=O)CSc3nc(C)cc(C)c32)CC1
MEASURE: EC50
RESULT: > 112 µM (not active)

MOL: O=c1cc(COc2ncnc3c(Cl)cc(Cl)cc23)nc2sccn12
MEASURE: EC50
RESULT: > 112 µM (not active)

MOL: c1ccc2nc(-c3ccc(N4CCOCC4)cc3)ccc2c1
MEASURE: EC50
RESULT: 0.793 µM (active)

MOL: COc1ccc(/C=N/Nc2nccnc2Cl)c(OC)c1
MEASURE: EC50
RESULT: 6.55 µM (active)

MOL: CCCCCc1nc2sc3c(c2c(=O)n1N)CCC3
MEASURE: EC50
RESULT: > 112 µM (not active)

MOL: Cc1csc(NC(=O)c2ccco2)n1
MEASURE: EC50
RESULT: > 112 µM (not active)

MOL: CC(=O)Nc1ccc(C(=O)N(C)c2ccccc2)cc1
MEASURE: EC50
RESULT: > 112 µM (not active)

###

Documented EC50 across a set of compounds
Experiment: NIH-3T3 fibroblast cytotoxicity, dose response, cytotoxicity control, cell-based, fluorescence, Alamar Blue, secondary assay (AID 2327);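 also: NIH-3T3 mouse fibroblasts cultured with fluconazole at 8 µg/mL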
Assay type: functional
Calls of active or inactive are those of the source.

COMPOUND: COc1ccc2c(c1)/C(=C/c1cnc[nH]1)C(=O)N2 [SU-9516]
EC50: > 160 µM (inactive)
--
COMPOUND: CN(C(=O)CC(NC(=O)c1ccccc1)(c1ccccc1)c1ccccc1)c1ccccc1
EC50: 30.5 µM (active)
--
COMPOUND: COc1ccc(C)cc1N=Nc1ccc(O)c2ncccc12
EC50: 11.1 µM (active)
--
COMPOUND: COc1cccc2c(SCC(=O)N/N=C/c3ccc(O)c(O)c3)cc(C)nc12
EC50: 26.3 µM (active)
--
COMPOUND: CCOC(=O)c1cc2c(=O)n3ccccc3nc2n(CCOC)/c1=N\C(=O)c1ccncc1
EC50: 115 µM (active)

###

Documented CC50 across a set of compounds
Assay: viability of uninfected HEp-2 cells – cell-based, HTS, cytotoxicity control for RSV inhibitor project, dose response (AID 2410)
Type: functional
Conditions: human respiratory syncytial virus
The source made the active and inactive calls.

COMPOUND: COc1cc2c(-c3ccc(O)cc3)nc3c(c(C)nn3-c3ccccc3)c2cc1OC
CC50: 9.63 µM (active)
//
COMPOUND: Cc1[nH]c2ccc(-c3nnc(SCC(=O)c4ccccc4F)o3)cc2c1C
CC50: 32.8 µM (active)
//
COMPOUND: Oc1ccc(C[C@H]2CNCCN2CCC23CC4CC(CC(C4)C2)C3)cc1
CC50: 14.2 µM (active)
//
COMPOUND: Cc1[nH]c(C)c(S(=O)(=O)N2CCN(c3cccc(Cl)c3)CC2)c1C(=O)N1CCCCC1
CC50: 29.3 µM (active)
//
COMPOUND: CCCSc1nnc(NC(=O)c2sc3nc(-c4cccs4)ccc3c2N)s1
CC50: 46 µM (active)
//
COMPOUND: CCOc1ccc2nc(NC(=O)COc3ccc(N(C)S(=O)(=O)c4ccc(C)cc4)cc3)sc2c1
CC50: 1.78 µM (active)
//
COMPOUND: CN(C)CCCN(C(=O)c1ccc(S(=O)(=O)N2CCc3ccccc3C2)cc1)c1nc2ccc(F)cc2s1
CC50: 31.1 µM (active)
//
COMPOUND: N=C(N)NC(=O)c1nc(Cl)c(N2CCCCCC2)nc1N [N,N-HEXAMETHYLENEAMILORIDE]
CC50: 10.5 µM (active)

###

Biological target: Estrogen receptor beta (Homo sapiens)
Sequence (Q92731 whole entry): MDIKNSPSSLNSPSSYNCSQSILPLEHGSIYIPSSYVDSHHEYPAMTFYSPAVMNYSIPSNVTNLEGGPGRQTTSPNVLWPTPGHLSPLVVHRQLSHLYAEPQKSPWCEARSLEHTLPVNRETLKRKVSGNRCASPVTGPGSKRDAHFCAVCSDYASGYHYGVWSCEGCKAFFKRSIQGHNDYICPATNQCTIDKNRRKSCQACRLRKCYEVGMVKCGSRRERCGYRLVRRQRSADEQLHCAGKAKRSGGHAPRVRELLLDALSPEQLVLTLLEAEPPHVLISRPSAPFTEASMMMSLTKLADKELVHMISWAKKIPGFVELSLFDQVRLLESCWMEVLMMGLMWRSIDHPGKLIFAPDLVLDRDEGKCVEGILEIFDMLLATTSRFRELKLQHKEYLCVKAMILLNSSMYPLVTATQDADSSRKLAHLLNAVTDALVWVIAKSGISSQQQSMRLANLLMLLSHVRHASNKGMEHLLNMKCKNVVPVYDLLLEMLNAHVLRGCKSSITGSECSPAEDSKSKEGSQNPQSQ
Test: blockers of SRC-3 recruitment to ERβ – biochemical, ELISA, streptavidin-HRP readout, orthogonal assay, confirmation (AID 1060)

MOL: Cc1ccc2c(Cl)cc(Cl)c(OCC(=O)NCc3ccco3)c2n1
TESTED SYSTEM: Estrogen receptor beta (Homo sapiens)
IC50: > 50 µM (not active)

MOL: CSc1ccccc1NC(=O)c1noc2c1CCC2
TESTED SYSTEM: Estrogen receptor beta (Homo sapiens)
IC50: > 50 µM (not active)

MOL: Cc1ccc(C(=O)ONc2ccc(N=NC(=O)c3ccccc3O)cc2)cc1
TESTED SYSTEM: Estrogen receptor beta (Homo sapiens)
IC50: < 0.023 µM (not active)

MOL: C1=C(N2CCOCC2)/C(=C/c2nc3ccccc3[nH]2)CC1
TESTED SYSTEM: Estrogen receptor beta (Homo sapiens)
IC50: > 109 µM (not active)

###

Assay: alpha-synuclein stem-loop luciferase translation blockers – H4 neuroglioma cells, luminescence, confirmation (AID 1988)
Assay type: functional, cell-based
Calls of active or inactive are those of the source.
Documented EC50 across a set of molecules

MOL: N#Cc1cc2cc3c(cc2nc1SCC(=O)N1CCOCC1)OCCO3
EC50: 5540 nM (active)
//
MOL: COc1ccc(NS(=O)(=O)c2cc(C)ccc2NC(=O)c2cc(C)oc2C)cc1
EC50: < 100 nM (active)
//
MOL: c1ccc2nc(-c3ccc(N4CCOCC4)cc3)ccc2c1
EC50: 413 nM (inconclusive)
//
MOL: CN(C)c1ccc(C(=O)c2ccc(N(C)C)c3ccccc23)cc1
EC50: < 100 nM (active)

###

What follows is a collection of AC50 values obtained with Cytochrome P450 2D6 (Homo sapiens).
Sequence (P10635 whole entry): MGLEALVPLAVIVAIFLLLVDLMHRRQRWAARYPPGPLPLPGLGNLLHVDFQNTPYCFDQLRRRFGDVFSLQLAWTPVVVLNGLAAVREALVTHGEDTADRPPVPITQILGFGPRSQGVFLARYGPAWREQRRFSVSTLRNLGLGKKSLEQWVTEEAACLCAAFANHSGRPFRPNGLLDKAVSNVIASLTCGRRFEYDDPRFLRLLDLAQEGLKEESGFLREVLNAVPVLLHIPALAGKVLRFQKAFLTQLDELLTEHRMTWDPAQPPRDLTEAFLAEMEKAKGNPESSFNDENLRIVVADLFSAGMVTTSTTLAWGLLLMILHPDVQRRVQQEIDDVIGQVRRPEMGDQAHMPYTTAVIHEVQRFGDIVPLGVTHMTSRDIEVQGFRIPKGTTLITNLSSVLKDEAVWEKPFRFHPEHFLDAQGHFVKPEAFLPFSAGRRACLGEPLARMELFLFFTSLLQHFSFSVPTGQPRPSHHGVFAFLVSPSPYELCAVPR
MEASURE: AC50

MOL: N=C(N)SCCc1ccc(CCSC(=N)N)cc1
TESTED SYSTEM: Cytochrome P450 2D6 (Homo sapiens)
RESULT: 31.6 µM (inconclusive)

MOL: CCNC1=NN=C(c2ccc(C)cc2)CS1
TESTED SYSTEM: Cytochrome P450 2D6 (Homo sapiens)
RESULT: 14.1 µM (inconclusive)

MOL: N=C(c1ccc2ccccc2c1)c1ccccc1Cc1ccccc1
TESTED SYSTEM: Cytochrome P450 2D6 (Homo sapiens);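 also: CYP2D6 member of a cytochrome P450 panel assay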
RESULT: 3.16 µM (inconclusive)

###

Experiment: Trypanosoma cruzi growth suppression in host cells – NIH3T3 host cells, beta-gal luminescence, confirmation (AID 2044);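 also: intracellular parasites grown in NIH/3T3 mouse fibroblasts as host cells; luminescent beta-galactosidase reporter signal from transgenic T. cruzi replicating inside host cells; inhibitors lower the luminescence signal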
Type: functional, cell-based
Active and inactive are the calls of the source.
MEASURE: EC50

MOLECULE: O=C(CCc1ccccc1)NC(c1cccs1)c1cc(Cl)c2cccnc2c1O (stereo not drawn)
RESULT: 536 nM (active)
//
MOLECULE: CCc1sc(C(=O)NC2CCN(C)CC2)cc1Br
RESULT: < 100 nM (active)
//
MOLECULE: COc1ccc(/C=C/C(=O)NC(=S)NNC(=O)c2cnccn2)cc1
RESULT: 955 nM (active)

###

Documented EC50 across a set of molecules
Target: Short transient receptor potential channel 4 (Mus musculus)
Sequence (Q9QUQ5 whole entry): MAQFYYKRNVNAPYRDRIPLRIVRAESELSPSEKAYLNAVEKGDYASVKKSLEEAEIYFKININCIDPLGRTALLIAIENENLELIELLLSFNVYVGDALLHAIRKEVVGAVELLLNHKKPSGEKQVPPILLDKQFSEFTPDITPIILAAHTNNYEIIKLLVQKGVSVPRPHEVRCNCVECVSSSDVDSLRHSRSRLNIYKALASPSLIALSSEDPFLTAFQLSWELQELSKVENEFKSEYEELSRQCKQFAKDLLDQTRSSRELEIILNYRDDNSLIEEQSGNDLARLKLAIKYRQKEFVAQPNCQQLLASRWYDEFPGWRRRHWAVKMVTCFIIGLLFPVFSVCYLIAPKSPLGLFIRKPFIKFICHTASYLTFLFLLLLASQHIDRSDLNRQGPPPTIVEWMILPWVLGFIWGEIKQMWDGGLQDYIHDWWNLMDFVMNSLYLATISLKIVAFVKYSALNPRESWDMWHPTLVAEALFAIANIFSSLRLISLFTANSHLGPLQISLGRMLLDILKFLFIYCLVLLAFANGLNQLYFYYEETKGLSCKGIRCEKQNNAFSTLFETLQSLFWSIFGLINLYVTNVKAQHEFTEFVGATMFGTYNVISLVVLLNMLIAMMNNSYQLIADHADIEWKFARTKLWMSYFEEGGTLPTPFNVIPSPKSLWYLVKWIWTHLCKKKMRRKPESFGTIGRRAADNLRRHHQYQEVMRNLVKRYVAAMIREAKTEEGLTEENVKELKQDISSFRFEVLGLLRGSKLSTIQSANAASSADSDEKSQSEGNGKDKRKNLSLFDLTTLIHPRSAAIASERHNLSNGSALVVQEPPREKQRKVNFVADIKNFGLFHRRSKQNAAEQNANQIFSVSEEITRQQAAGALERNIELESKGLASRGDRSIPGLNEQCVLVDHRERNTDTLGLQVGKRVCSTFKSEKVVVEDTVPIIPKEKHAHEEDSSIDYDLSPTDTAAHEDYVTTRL
Experiment: block of DAMGO-driven TRPC4 calcium entry – cell-based, HEK293 TRPC4/mu-opioid, Fluo-4 calcium, dose response (AID 434942);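 also: potency of inhibitors blocking the TRPC4 calcium response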
Assay type: functional
Activity calls are given as the source filed them.

MOLECULE: CC1(C)CC(NC(=O)c2cc(COc3cccc(C(F)(F)F)c3)on2)CCO1 (stereo not drawn)
EC50: 1.88 µM (active)
--
MOLECULE: Cc1cccc(N2CCc3c2nc2ccccc2c3N)c1
EC50: 1.06 µM (active)
--
MOLECULE: CCOC(=O)c1c(NC(=O)C(C)Sc2nnc(C)c(O)n2)sc2c1CCCC2 (stereo not drawn)
EC50: 0.237 µM (active)
--
MOLECULE: Cc1ccc(/C=C2\SC(=S)N(C(Cc3ccccc3)C(=O)O)C2=O)cc1 (stereo not drawn)
EC50: 5.96 µM (active)
--
MOLECULE: Cc1cccc(N(C(=O)c2snc(C(N)=O)c2N)C(C(=O)NCC2CCCO2)c2ccc3ncccc3c2)c1 (stereo not drawn)
EC50: 7.5 µM (active)
--
MOLECULE: COc1ccc(OC)c(N2Cc3ccccc3C2=N)c1
EC50: 3.35 µM (active)
--
MOLECULE: Cc1nc2scc(-c3ccccc3)c2c(=O)n1N=C1C=CC(=O)C=C1
EC50: 5.96 µM (active)
--
MOLECULE: N#Cc1c(N)sc2c1CCCCCC2
EC50: 3.76 µM (active)

###

Biological target: Kallikrein-7 (Homo sapiens)
Sequence (P49862 whole entry): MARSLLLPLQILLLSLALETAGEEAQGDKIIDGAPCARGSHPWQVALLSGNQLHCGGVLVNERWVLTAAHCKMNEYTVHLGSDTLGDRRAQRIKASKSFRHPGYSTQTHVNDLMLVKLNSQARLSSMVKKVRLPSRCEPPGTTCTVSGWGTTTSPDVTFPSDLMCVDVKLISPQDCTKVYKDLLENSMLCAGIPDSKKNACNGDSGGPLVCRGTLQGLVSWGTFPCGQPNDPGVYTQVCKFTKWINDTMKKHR
Assay: Fluorescence Intensity-based biochemical primary high throughput dose response assay to identify activators of kallikrein-7 (K7) zymogen.
The source made the active and inactive calls.
Outcome codes: active, inactive

MOLECULE: O=C1NC(c2ccc(Br)cc2)Nc2ccccc21 (centres undefined)
CLASS ASSIGNMENT: inactive

MOLECULE: O=C(O)CCC(=O)NN1C(=O)c2ccccc2NC1c1ccc(F)cc1 (centres undefined)
CLASS ASSIGNMENT: active

MOLECULE: Cc1ccc(/C=C2\Oc3c(ccc(O)c3CN3CCN(C)CC3)C2=O)cc1
CLASS ASSIGNMENT: inactive

MOLECULE: CCOCCCn1c(=N)c(C(=O)NCCN2CCOCC2)cc2c(=O)n3cccc(C)c3nc21
CLASS ASSIGNMENT: inactive
